Target: T1, mouse serum albumin (MSA) (mouse, UniProt P07724 25-608)
T1 construct: also called mouse albumin
T1 sequence (P07724 25-608 limits assumed): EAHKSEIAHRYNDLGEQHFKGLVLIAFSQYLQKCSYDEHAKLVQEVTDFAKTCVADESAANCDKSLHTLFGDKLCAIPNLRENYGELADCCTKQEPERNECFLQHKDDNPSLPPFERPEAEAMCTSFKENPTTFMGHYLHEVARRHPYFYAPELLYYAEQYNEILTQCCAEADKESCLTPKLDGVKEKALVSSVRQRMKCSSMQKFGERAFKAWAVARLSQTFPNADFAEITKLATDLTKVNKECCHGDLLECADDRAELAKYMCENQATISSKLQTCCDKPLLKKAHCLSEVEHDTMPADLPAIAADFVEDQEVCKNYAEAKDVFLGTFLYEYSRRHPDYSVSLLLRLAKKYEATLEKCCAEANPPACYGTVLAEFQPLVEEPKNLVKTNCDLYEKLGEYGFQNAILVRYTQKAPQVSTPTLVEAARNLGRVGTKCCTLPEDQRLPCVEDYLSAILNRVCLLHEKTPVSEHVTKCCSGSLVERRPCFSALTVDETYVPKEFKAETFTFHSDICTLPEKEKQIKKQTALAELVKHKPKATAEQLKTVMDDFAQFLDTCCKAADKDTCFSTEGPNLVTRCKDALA
Assay: fluorescence polarization, dilution series of mouse albumin in PBS
Primed or numbered codes have the meaning given here. No end group written: not given here. *: point of attachment. Palmitoyl = CCCCCCCCCCCCCCCC(=O)*; PEG2″ = not defined here
PROPERTY: pKd
# reply with the number alone; pKd is -log10 of concentration in mol/L

Dear colleague, please send me the reported pKd for {fluorescein-PEG2″}-EYEK(Palmitoyl)EYE (also called fluorescein-tag) [albumin tag (F-tag)] when you can.
5.38
